Measured values drawn from patent US12077503B2 for this set.

Test system: barnyardgrass (Echinochloa crus-galli)
Experiment: Test C preemergence
Assay type: in vivo
Conditions: 125 g ai/ha, scale 0 to 100, 0 no effect, 100 complete control
measurement-kind: Plant response rating, Barnyardgrass
Just the number, please, no unit attached.

In the examples that follow, each entry is paired with its recorded Plant response rating, Barnyardgrass.
O=C1NCC(c2cccc(C(F)(F)F)c2F)C1C(=O)Nc1cccc(F)c1F (stereo not shown) [Compound 591] : 95
O=C1NCC(c2ccc(Br)cc2)C1C(=O)Nc1cccc(F)c1F (stereo not shown) [Compound 446] : 90
CC(C)Oc1cccc(C2CN(C)C(=O)C2C(=O)Nc2cccc(F)c2F)c1 (stereo not shown) [Compound 651] : 100
CN1CC(c2ccc(C(F)(F)F)c(F)c2)C(C(=O)Nc2cccc(F)c2F)C1=O (stereo not shown) [Compound 396] : 98
Cc1ccc(C2CN(C)C(=O)C2C(=O)Nc2ccccc2F)cc1F (stereo not shown) [Compound 465] : 98

Would you mind telling me what Plant response rating, Barnyardgrass value was observed for CN1CC(c2cccc(OC(F)F)c2)C(C(=O)Nc2ccc(F)cc2F)C1=O (stereo not shown) [Compound 617] ?
95

Find the recorded Plant response rating, Barnyardgrass belonging to CN1CC(c2ccc(F)c(C(F)(F)F)c2)C(C(=O)Nc2ccccc2S(C)(=O)=O)C1=O (stereo not shown) [Compound 612] and report it.
95
